biological target: recombinant human cathepsin B (Homo sapiens, UniProt P07858); assay: in vitro cathepsin B assay; conditions: Z-Arg-Arg-AMC substrate, pH 5.8 phosphate buffer, fluorescence at 20 minutes
pIC50: −log10 of the molar value.
readout.type: pIC50

Recorded pIC50 (compound Cc1cccc(C[C@H](Nc2ccccc2)C(=O)NC(C#N)COCc2cccc(C(=O)O)c2)c1 (stereo in doubt) ): ~7.00

###

Would you mind telling me the reported melting point of each entry?

Recorded melting point (molecule `N#C[C@@H](COCc1cccc(C(=O)O)c1)NC(=O)C1(Nc2ccccc2)CCCCC1` ): 80 to 83 °C

Recorded melting point (molecule Cc1cccc(C[C@H](Nc2ccccc2)C(=O)NC(C#N)COCc2cccc(C(=O)O)c2)c1 (stereo in doubt) ): 135 to 137 °C

Recorded melting point (molecule `N#CCNC(=O)CN(c1ccccc1)C1Cc2ccccc2C1` ): 169 to 170 °C

Recorded melting point (molecule C=CCOC(=O)c1cccc(COCC(C#N)NC(=O)[C@H](Cc2cccc(C)c2)Nc2ccc(F)cc2)c1 (stereo in doubt) ): 86 to 88 °C
